From: patent US8288424B2

- target.system: KCNQ2/3 channels (Homo sapiens, UniProt O43525+O43526)
- experimental.details: Fluorescence assay using a voltage-sensitive dye
- experimental.context: CHO-K1 cells expressing KCNQ2/3 channels; agonistic activity
pEC50: −log10 of the molar value.
reported.metric: pEC50

CCOc1ccccc1N1CCN(C(=O)c2cn3c(n2)CCC(c2cccc(C)c2)C3)CC1 (stereo not drawn)    5.10
Cc1cc(C2CCc3nc(C(=O)N4CCC(Cc5ccccc5)CC4)cn3C2)ccc1F (stereo not drawn)    5.01
COc1ccc(C2CCc3nc(C(=O)N4CCN(c5cccc(C(F)(F)F)c5)CC4)cn3C2)c(OC)c1 (stereo not drawn)    5.40
COc1ccc(CCNC(=O)c2cn3c(n2)CCC(c2ccc(Oc4ccccc4)cc2)C3)cc1OC (stereo not drawn)    5.20
CCCCCCNC(=O)c1cn2c(n1)CCC(c1cc(C)c(OC)c(C)c1)C2 (stereo not drawn)    5.40
Cc1cc(C2CCc3nc(C(=O)N4CCN(c5cccc(C(F)(F)F)c5)CC4)cn3C2)ccc1F (stereo not drawn)    5.35
O=C(c1cn2c(n1)CCC(c1ccc(Oc3ccccc3)cc1)C2)N1CCCC1 (stereo not drawn)    5.63
O=C(c1cn2c(n1)CCC(c1ccccc1)C2)N1CCN(c2cccc(C(F)(F)F)c2)CC1 (stereo not drawn)    5.08
COc1c(C)cc(C2CCc3nc(C(=O)N4CCN(c5cccc(C(F)(F)F)c5)CC4)cn3C2)cc1C (stereo not drawn)    5.61
Cc1cc(C2CCc3nc(C(=O)N4CCN(c5cccc(F)c5)CC4)cn3C2)ccc1F (stereo not drawn)    5.19

a = COc1cccc(C2CCc3nc(C(=O)NC(C)CCc4ccccc4)cn3C2)c1 (stereo not drawn)
b = COc1ccc(F)cc1C1CCc2nc(C(=O)N3CC4(C)CC3CC(C)(C)C4)cn2C1 (stereo not drawn)
# return whichever of a and b has the smaller pEC50 Give the label of your selection.
b
(b: 4.92, a: 5.19)

----------
- target.system: KCNQ2/3 channels (Homo sapiens, UniProt O43525+O43526)
- experimental.details: Fluorescence assay using a voltage-sensitive dye
- experimental.context: CHO-K1 cells expressing KCNQ2/3 channels; agonistic activity
pEC50: −log10 of the molar value.
reported.metric: pEC50

As a guide, the following entries are already answered.
CCCCCNC(=O)c1cn2c(n1)CCC(c1ccc(Oc3ccccc3)cc1)C2 (centres unmarked)    5.03
CCOC(=O)C1CCN(C(=O)c2cn3c(n2)CCC(c2ccc(Oc4ccccc4)cc2)C3)CC1 (centres unmarked)    4.94
CC(=O)N1CCN(C(=O)c2cn3c(n2)CCC(c2ccc(Oc4ccccc4)cc2)C3)CC1 (centres unmarked)    5.24
O=C(NCc1cccnc1)c1cn2c(n1)CCC(c1ccc(Oc3ccccc3)cc1)C2 (centres unmarked)    5.21
CCCCNC(=O)c1cn2c(n1)CCC(c1ccc(Oc3ccccc3)cc1)C2 (centres unmarked)    5.21

I = COc1c(C)cc(C2CCc3nc(C(=O)N4CCN(c5ccccc5F)CC4)cn3C2)cc1C (centres unmarked)
II = Cc1cc(C2CCc3nc(C(=O)NC(C)CCc4cccc(C(F)(F)F)c4)cn3C2)ccc1F (centres unmarked)
# return whichever of I and II has the smaller pEC50 Give the label of your selection.
I
(I: 5.13, II: 5.92)
